# Procedure Summary: Pharmacokinetics of oral topotecan with or without chrysin formulations in rats
# Assay type: in vivo
# Condition Set: male, Sprague-Dawley, rat, plasma, po, 10 mg/kg
Assay Readout: Cmax (ng/mL)
Please give a number only; it is taken to be in ng/mL.

What does the data say about its Cmax? Entry: CC[C@@]1(O)C(=O)OCc2c1cc1n(c2=O)Cc2cc3c(CN(C)C)c(O)ccc3nc2-1 [Control (Topotecan Only), topotecan]
109

----------
# Procedure Summary: Solubility study in distilled water
# Type: physicochemical
Assay Readout: solubility at 24 h (µg/mL)
Please give a number only; it is taken to be in µg/mL.

What does the data say about its solubility at 24 h? Entry: O=c1cc(-c2ccccc2)oc2cc(O)cc(O)c12 [chrysin (untreated drug), 5,7-dihydroxyflavone]
3.04

----------
# Procedure Summary: Pharmacokinetics of oral topotecan with or without chrysin formulations in rats
# Assay type: in vivo
# Condition Set: male, Sprague-Dawley, rat, plasma, po, 10 mg/kg
Assay Readout: AUC (ng·h/mL)
Please give a number only; it is taken to be in ng·h/mL.

What does the data say about its AUC? Entry: CC[C@@]1(O)C(=O)OCc2c1cc1n(c2=O)Cc2cc3c(CN(C)C)c(O)ccc3nc2-1 [Control (Topotecan Only), topotecan]
578
